pIC50 listing for selected molecules.
Test system: MGC-803
Test: Antiproliferative activity against human MGC-803 cells assessed as inhibition of cell growth incubated for 48 hrs by MTT assay
Type: functional, cell-based
Conditions: MGC-803, 48 h
Remember the convention: pIC50 equals -log10 of concentration in molar.

Guide cases for pIC50, answers given:
                              smiles_string  subject_of_test  readout_number
0                   O=c1[nH]cc(F)c(=O)[nH]1          MGC-803            5.41
1  C=CCc1ccc(O)c(-c2ccc3c(c2)C[C@@H](CSc2nnc(-c4ccc(OC)cc4)o2)O3)c1          MGC-803            4.40
2  C=CCc1ccc(O)c(-c2ccc3c(c2)C[C@@H](CSc2nnc(-c4ccc(C)cc4)o2)O3)c1          MGC-803            4.53
3  C=CCc1ccc(O)c(-c2ccc3c(c2)C[C@@H](CSc2nnc(-c4cccnc4)o2)O3)c1          MGC-803            5.06
4  C=CCc1ccc(O)c(-c2ccc3c(c2)C[C@@H](CSc2nnc(-c4ccc(Cl)cc4)o2)O3)c1          MGC-803            4.57
5  C=CCc1ccc(O)c(-c2ccc3c(c2)C[C@@H](CSc2nnc(-c4cccc(C)c4)o2)O3)c1          MGC-803            4.69

Query: Look up and report measured pIC50 (MGC-803) for the following molecule: C=CCc1ccc(O)c(-c2ccc3c(c2)C[C@@H](CSc2nnc(-c4ccc(F)cc4Cl)o2)O3)c1
Response: 4.69

Query: State recorded pIC50 with MGC-803, entry C=CCc1ccc(O)c(-c2ccc3c(c2)C[C@@H](CSc2nnc(-c4cccc(Cl)c4)o2)O3)c1 , no comment.
Response: 4.61

---

Test system: MGC-803
Test: Antiproliferative activity against human MGC-803 cells assessed as inhibition of cell growth incubated for 48 hrs by MTT assay
Format: functional, cell-based
Settings: MGC-803, 48 h
Value Kind: IC50 (µM)
Kindly answer with a numeric value in µM, unit omitted.

>>> df
                              smiles_string  value_kind  reading_unit  readout_number
0  C=CCc1ccc(O)c(-c2ccc3c(c2)C[C@@H](CSc2nnc(-c4ccc(Br)cc4)o2)O3)c1        IC50            µM            44.6
1  C=CCc1ccc(O)c(-c2ccc3c(c2)C[C@@H](CSc2nnc(-c4ccccc4C)o2)O3)c1        IC50            µM            25.7
2  C=CCc1ccc(O)c(-c2ccc3c(c2)C[C@@H](CSc2nnc(-c4ccc(Cl)cc4Cl)o2)O3)c1        IC50            µM            21.5
3  C=CCc1ccc(O)c(-c2ccc3c(c2)C[C@@H](CSc2nnc(-c4ccccc4F)o2)O3)c1        IC50            µM            16.2

Query: Entry C=CCc1ccc(O)c(-c2ccc3c(c2)C[C@@H](CSc2nnc(-c4cccc(Br)c4)o2)O3)c1 needs its IC50 filled in; supply it.
Response: 20.4

Query: State, in one line, measured IC50 of C=CCc1ccc(O)c(-c2ccc3c(c2)C[C@@H](CSc2nnc(-c4ccccc4)o2)O3)c1
Response: 27.5

Query: Fill in reported IC50 for this entry: C=CCc1ccc(O)c(-c2ccc3c(c2)C[C@@H](CSc2nnc(-c4ccncc4)o2)O3)c1
Response: 40.6

Query: Give IC50 for C=CCc1ccc(O)c(-c2ccc(O)c(CC=C)c2)c1
Response: 11.8

Query: Quickly give me recorded IC50 for C=CCc1ccc(O)c(-c2ccc3c(c2)C[C@@H](CSc2nnc(-c4cccc(F)c4)o2)O3)c1
Response: 23.8

Query: Provide only the value of recorded IC50 for C=CCc1ccc(O)c(-c2ccc3c(c2)C[C@@H](CSc2nnc(-c4ccc(F)cc4)o2)O3)c1
Response: 25.1
